- assay.procedure: insulin gene promoter stimulation in islet cells – imaging, TRM-6 cells, eGFP reporter, cell count, primary screen (AID 1296);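 note: cells counted after 48 h compound exposure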
- run.conditions: at 2 µM; measured here: cell count (toxicity)
In all, about 130,000 compounds went through this assay and about 1,000 (0.77%) were called active. Another 1% or so got no clear call; they are omitted. The sample as a whole holds a higher share of actives than the screen did.
Consider the following molecules; for each one, report its normalized cell count.
Give bare numbers, in %.

For every listed record, write down its normalized cell count.
1. Cc1cc(C(=O)OCC(=O)Nc2nnc(C(C)C)s2)c2ccccc2n1
2. Cc1cs/c(=N\N=C\c2ccc(O)cc2)n1Cc1ccco1
3. COCCNC(=S)c1ccc(OC)cc1
4. CCN(CC(=O)Nc1ccc(Cl)c(S(=O)(=O)N(C)C)c1)Cc1nc2ccccc2c(=O)[nH]1
5. COCCn1c(SCC(=O)Nc2ccc3c(c2)CCC3)nc2ccccc2c1=O
6. COC(=O)c1ccccc1NC(=S)NC(=O)c1ccccc1F
7. CSc1ccccc1NC(=O)Cc1ccc(Br)cc1
8. CN(c1ccccc1)c1ccc(/C=c2\s/c(=C(/C#N)C(=O)C(C)(C)C)n(Cc3ccco3)c2=O)cc1

1. 93.8
2. 109
3. 62.5
4. 83.9
5. 117
6. 112
7. 70.6
8. 74.1

For every listed record, write down its normalized cell count.
1. COc1ccc(OC)c(CNC(=O)c2cc(=O)[nH]c3ccc(S(=O)(=O)N4CCCC4)cc23)c1
2. CCN1CCN(C(C(=O)NC2CCCC2)c2cc3c(cc2[N+](=O)[O-])OCO3)CC1 (stereo not drawn)
3. O=C(O)COc1ccc(/C=N/O)cc1Br
4. Cc1cccc(N(C(=O)Cc2cccs2)C(C(=O)NCc2ccco2)c2ccncc2)c1 (stereo not drawn)
5. COc1cc(/C=N/NC(=O)c2cc(C)n(-c3ccc(F)cc3)c2C)cc(OC)c1O

1. 73.7
2. 84.9
3. 101
4. 58.7
5. 121

###

- assay.procedure: insulin gene promoter stimulation in islet cells – imaging, TRM-6 cells (human fetal islet line), eGFP reporter, cell count, primary screen (AID 1296)
- run.conditions: at 2 µM; measured here: cell count (toxicity)
Hit rate of the full screen: of about 130,000 compounds, about 1,000 (0.77%) were called active. About 1% were inconclusive and are not listed. Many of the other results were omitted from the sample, so actives are more common in it than they were.
Consider the following compounds; for each one, report its normalized cell count.
Numbers only, in %.

Below, 4 compounds whose answers are already recorded.
                                   compound      reported_property  experimental_value
0  COc1ccc(N2CCN(C(=O)c3ccc4c(Cl)c5c(nc4c3)CCCC5)CC2)cc1  normalized cell count                94.9
1  CCOC(=O)c1c(NC(=O)C2CC=CCC2C(=O)O)sc(C)c1CC (stereo unspecified)  normalized cell count                 110
2  COc1cc(/C=C/C(=O)OCC(=O)Nc2cccc(Oc3ccccc3)c2)ccc1O  normalized cell count                 105
3     CCn1c(Cc2cccs2)nnc1SCC(=O)c1ccc(C)cc1  normalized cell count                93.9

For every listed record, write down its normalized cell count.
1. Cc1cccc(C)c1OC(=O)CSc1nnc(-c2ccccc2)o1
2. Cc1nn(Cc2ccc(C(=O)N3N=C(C(F)F)CC3(O)C(F)F)cc2)c(C)c1[N+](=O)[O-] (stereo unspecified)

1: 75.9; 2: 126

For every listed record, write down its normalized cell count.
1. Cc1nn2c3cc(N4CCOCC4)ccc3nc2c2ccccc12
2. O=C(NC1CCCC1)C(NS(=O)(=O)c1ccc(Br)s1)c1ccccc1 (stereo unspecified)
3. CC(C)NC(=O)C(=O)N/N=C/c1ccco1
4. O=C(Nc1ccccc1C(=O)NCCCn1ccnc1)c1ccc(Cl)cc1Cl
5. CCOC(=O)c1c(NC(=O)CSc2nnc(C)c(=O)[nH]2)sc2c1CCC2
6. COc1ccc(C2CC(c3cccs3)Nc3nnnn32)cc1 (stereo unspecified)
7. O=C(CN1CCOCC1)N1CCCc2c1c(=O)oc1ccc(OCc3ccccc3)cc21

1: 79.7; 2: 72.4; 3: 130; 4: 61.3; 5: 125; 6: 120; 7: 118

For every listed record, write down its normalized cell count.
1. Cc1nc2scc(-c3cccs3)c2c(=O)n1N
2. CN=C1S/C(=C\c2ccc(Sc3ccc(Cl)cc3)o2)C(=O)N1C
3. Cc1c(C(=O)N2CCOCC2)[nH]c2ccc(OCc3ccccc3)cc12
4. Cc1ccc2c(Cl)c(C(=O)NCCCn3ccnc3)sc2c1
5. Cc1ccccc1C(OCCN(C)C)C1CCCCC1 (stereo unspecified)
6. CCOC(=O)c1c(NC(=O)c2ccc(Br)o2)sc2c1CCCC2
7. O=Cc1cn(Cc2ccccc2)nc1-c1cccnc1

[105, 43.5, 126, 42, 72.9, 119, 212]

For every listed record, write down its normalized cell count.
1. Cc1ccc(/C=C(\C#N)C(=O)Nc2cccc3ncccc23)o1
2. N#C/C(=C\c1ccc(N2CCOCC2)o1)C(=O)N1CCOCC1
3. Cc1cccc(NC(=O)C2CC(=O)OC23CCCC3)c1 (stereo unspecified)

1. 106
2. 99.1
3. 75.4
